Attribution: paper PMC10873324

Target: PARP2 (Homo sapiens, UniProt Q9UGN5)
Sequence (Q9UGN5 356-583 limits assumed): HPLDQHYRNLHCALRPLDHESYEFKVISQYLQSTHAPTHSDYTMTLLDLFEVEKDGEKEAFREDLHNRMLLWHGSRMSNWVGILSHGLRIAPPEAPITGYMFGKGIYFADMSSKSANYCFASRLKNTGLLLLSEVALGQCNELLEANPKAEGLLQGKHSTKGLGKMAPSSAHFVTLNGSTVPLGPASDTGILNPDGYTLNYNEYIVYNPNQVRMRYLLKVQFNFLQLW
Sequence (Q9NWY4 whole entry partner, the tested form may be a part): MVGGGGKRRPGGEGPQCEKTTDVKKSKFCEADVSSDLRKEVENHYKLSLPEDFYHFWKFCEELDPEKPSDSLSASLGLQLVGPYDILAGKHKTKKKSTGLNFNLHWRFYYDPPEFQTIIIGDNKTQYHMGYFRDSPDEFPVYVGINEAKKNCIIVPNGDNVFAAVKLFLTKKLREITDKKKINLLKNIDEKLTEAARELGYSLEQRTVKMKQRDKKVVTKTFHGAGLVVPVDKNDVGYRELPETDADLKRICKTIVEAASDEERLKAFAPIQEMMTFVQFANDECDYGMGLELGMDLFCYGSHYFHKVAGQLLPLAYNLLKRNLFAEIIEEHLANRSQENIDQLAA
Experiment: FRET PARP2-HPF1 interaction inhibition (olaparib present); nanoDSF shift of the PARP2 ART domain ([…] to […] °C), none for HPF1
Below, each entry is listed alongside its reported IC50.
Form entry: value (µM) — number only.

CC(C)=CC[C@H](O)C1=CC(=O)c2c(O)ccc(O)c2C1=O :: 21.2

Next up:
## Task What does the data say about its IC50? Entry: `CC(C)=CC[C@@H](OC(=O)C=C(C)C)C1=CC(=O)c2c(O)ccc(O)c2C1=O`
## Result 15.7
